Each entry below carries its recorded IC50.
assay: Cytotoxicity against human LO2 cells after 48 hrs by MTT assay; format: cell-based; conditions: L02, 48 h
// note: answer is a bare numeric in µM

- COC(=O)[C@H](C)NP(=O)(Oc1ccccc1)Oc1cc(O)c2c(=O)c(-c3ccc(O)cc3)coc2c1 (some centres not stated): 15.7
- COC(=O)[C@H](C)NP(=O)(Oc1ccccc1)Oc1cc(OC(C)=O)c2c(=O)cc(-c3ccc(OC(C)=O)cc3)oc2c1 (some centres not stated): 22.2
- COC(=O)[C@H](C)NP(=O)(Oc1ccccc1)Oc1cc(O)c2c(=O)cc(-c3ccccc3)oc2c1 (some centres not stated): 62.3
- COC(=O)CNP(=O)(Oc1ccccc1)Oc1cc(OC(C)=O)c2c(=O)cc(-c3ccc(OC(C)=O)c(OC(C)=O)c3)oc2c1 (configuration not stated): 57.1

The compound listed as COC(=O)[C@H](C)NP(=O)(Oc1ccccc1)Oc1cc(O)c2c(=O)cc(-c3ccc(O)cc3)oc2c1 (some centres not stated) shows IC50 equal to 35.3

The compound listed as COC(=O)CNP(=O)(Oc1ccccc1)Oc1cc(O)c2c(=O)cc(-c3ccccc3)oc2c1 (configuration not stated) shows IC50 equal to 96.5

The compound listed as COC(=O)[C@H](Cc1ccccc1)NP(=O)(Oc1ccccc1)Oc1cc(O)c2c(=O)cc(-c3ccc(O)c(O)c3)oc2c1 (some centres not stated) shows IC50 equal to 39.1

The compound listed as COC(=O)[C@H](CC(C)C)NP(=O)(Oc1ccccc1)Oc1ccc2c(=O)c(-c3ccc(OC(C)=O)cc3)coc2c1 (some centres not stated) shows IC50 equal to 44.8

The compound listed as C#Cc1cccc(Nc2ncnc3cc(OCCOC)c(OCCOC)cc23)c1 [ERLOTINIB] shows IC50 equal to 18.5

The compound listed as COC(=O)CNP(=O)(Oc1ccccc1)Oc1cc(OC(C)=O)c2c(=O)c(-c3ccc(OC(C)=O)cc3)coc2c1 (configuration not stated) shows IC50 equal to 55.2
